Molecular target: CD28 (human) (UniProt P10747)
Test: flow cytometry, cells expressing CD28
Measured MFI of individual entries
Your answer is read as MFI, so omit the unit and give the number.

Qu. I would be grateful if you could share the reported MFI for variant CD80 K36G/K37Q/M38I/L40M (Fc fusion) VIHVTKEVKEVATLSCGHNVSVEELAQTRIYWQKEGQIVMTMMSGDMNIWPEYKNRTIFDITNNLSIVILALRPSDEGTYECVVLKYEKDAFKREHLAEVTLSVKADFPTPSISDFEIPTSNIRRIICSTSGGFPEPHLSWLENGEELNAINTTVSQDPETELYAVSSKLDFNMTTNHSFMCLIKYGHLRVNQTFNWNTTKQEHFPDN .
Ans. 1170

Qu. Again, but for variant CD80 L70Q/A91G/T110A/I118V/T120S/T130A (Fc fusion) VIHVTKEVKEVATLSCGHNVSVEELAQTRIYWQKEKKMVLTMMSGDMNIWPEYKNRTIFDITNNLSIVIQALRPSDEGTYECVVLKYEKDGFKREHLAEVTLSVKADFPAPSISDFEVPSSNIRRIICSASGGFPEPHLSWLENGEELNAINTTVSQDPETELYAVSSKLDFNMTTNHSFMCLIKYGHLRVNQTFNWNTTKQEHFPDN
Ans. 8

Qu. Now this one: variant CD80 A12V/S15F/Y31H/M38L/T41G/M43L/D90N/T130A/P137L/N149D/N152T (Fc fusion) VIHVTKEVKEVVTLFCGHNVSVEELAQTRIHWQKEKKLVLGMLSGDMNIWPEYKNRTIFDITNNLSIVILALRPSDEGTYECVVLKYEKNAFKREHLAEVTLSVKADFPTPSISDFEIPTSNIRRIICSASGGFPELHLSWLENGEELDAITTTVSQDPETELYAVSSKLDFNMTTNHSFMCLIKYGHLRVNQTFNWNTTKQEHFPDN
Ans. 6
